Give amyloid nucleation score for every item shown.
# assayInfo: amyloid nucleation score (Sup35N fusion, yeast selection) (log enrichment); library NNK1; higher = more nucleation; inactive = no reads after selection;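 also: zero at mode of non-aggregating sequences after 7 days selection at 30°C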
Give bare numbers.

SKNAWRVKNKSEFAV = 0.488
ISVKSW = -0.325
IYRGSNRLRRIGWEFNVALD = -0.819

I have 5 substances here; please give me amyloid nucleation score for each one.
1. SDMDNTWLA
2. RHMRSHENVGKFWRLSCFVN
3. YCNGNRKVVEVDFDWILGGG
4. GYWPNKRWSRMKPIYPHSNV
5. FCSNPAGWSSWSPE

Result block:
[-0.797, -0.36, -0.33, 1.34, 0.182]

I have 2 substances here; please give me amyloid nucleation score for each one.
1. FISPFCIVSYIIC
2. RHFEDYMELSSLSLGMGEG

Result block:
1. 5.85
2. -0.394

I have 5 substances here; please give me amyloid nucleation score for each one.
1. VEIPHKKWNYVSHLLLSIHG
2. STDSLLRWIKPERDGYRFLW
3. SRLMLFQIFDAKQIDVNDM
4. YWYFYISDRVKDNSCSNWSL
5. KIATKGNIF

Result block:
0.307
-0.479
5.03
-1.03
-0.951

I have 7 substances here; please give me amyloid nucleation score for each one.
1. VRVEKNCNFWLFSIVSCLPH
2. DKRECFGLDLEIWSMVVWMW
3. YSVMYMQSFFDKWLSTSAFR
4. YMLWSVPRLWCRVWLPTVAC
5. GEIEHHLRYVQCYFRRAVRL
6. RKFRGLVKLL
7. SFSHVYFYGVPYGQVPYRSV

Result block:
1: 8.49; 2: 0.611; 3: -1.17; 4: 0.585; 5: 0.319; 6: 1.28; 7: 1.5

I have 6 substances here; please give me amyloid nucleation score for each one.
1. RSLLLALFAICYVCGGYEWV
2. NGVPWG
3. WISFYSPCMGRAISLSVVDV
4. KVRIQGPTNVCVVRTMCGWF
5. RPYGPYALLWSISIYAWELL
6. IICISFWSVKLVDHPMVSNG

Result block:
1: 1.24; 2: -0.21; 3: 0.68; 4: 5.98; 5: 0.508; 6: 0.726

I have 4 substances here; please give me amyloid nucleation score for each one.
1. LGSILV
2. LNWNCITCTLNFVKYVTDCR
3. GYPGCHLFVSWTTVGPVFFY
4. GDFLIPRARDQFYRFSGFND

Result block:
-0.751
7.87
8.24
0.863

Query block: Query: amyloid nucleation score; subject: ECRGQLSDKIVQYNRPEVYW
Result block: -0.199

====

# assayInfo: amyloid nucleation score (Sup35N fusion, yeast selection) (log enrichment); library NNK3; higher = more nucleation; inactive = no reads after selection
outcomeMeasure: amyloid nucleation score

Before answering, review these 6 worked examples.
KRYYYCHGSSL = inactive
VFLVTSRVNIRCVVLHIINE = 1.08
SKSKYHFYHHGEAWSTLVVV = inactive
SSVENFLNVCNHLDES = 0.389
HDVFSNYLITVQTFLWLSGV = inactive
FYKRLSMSMIWFLLYLCTDM = inactive

I have 2 substances here; please give me amyloid nucleation score for each one.
1. LQQCFYMVNFFMLSSLAVLL
2. HFSSYDTDRINAVPKIWTIR

Result block:
1. inactive
2. inactive

I have 2 substances here; please give me amyloid nucleation score for each one.
1. CNLVVYCMSDNDV
2. YNPIGFRRLFTPTCLFITKL

Result block:
2.33
inactive

I have 6 substances here; please give me amyloid nucleation score for each one.
1. SDEYTVTFHPSTPGKVSERD
2. GRCVEVCLIWLTKGDQQCSY
3. TENISVCGYYYRMIALDMFW
4. FLLVTSRSEEAPLATETYRL
5. SVLWLN
6. HLSPVNSK

Result block:
1: inactive; 2: inactive; 3: inactive; 4: inactive; 5: inactive; 6: inactive
